Hey, just so you know, these numbers are from patent US20260345596A1.

Experiment: clinical
Conditions: human, in vivo, po
assay.readout: Vd/F (L)
Write the number in L without appending the unit.

Provide only the value of recorded Vd/F for `COc1cc(OC)cc(N(CCNC(C)C)c2ccc3ncc(-c4cnn(C)c4)nc3c2)c1`
29
